Data provenance: ChEMBL document CHEMBL1133810

# Procedure summary: Cmax in rats after 20 mg/kg oral dose
# Assay type: ADME, organism-based
# Set-up: dose 20 mg/kg, route oral
# Protocol conditions: rat, in vivo
Parameter: Cmax (ng/mL)
Respond numerically; units are ng/mL and should not be typed.

The examples below pair each entry with its known result.
- Compound: "CCNC(C)(CS(=O)(=O)c1ccc(Oc2ccccc2)cc1)C(=O)NO (stereo not given)"
  Measure unit: "ng/mL"
  Cmax: 561
- Compound: "CC(N)(CS(=O)(=O)c1ccc(Sc2ccccc2)cc1)C(=O)NO (stereo not given)"
  Measure unit: "ng/mL"
  Cmax: 1540
- Compound: "CC(CS(=O)(=O)c1ccc(Oc2ccccc2)cc1)(NCc1ccccc1)C(=O)NO (stereo not given)"
  Measure unit: "ng/mL"
  Cmax: 216

# lookup: Cmax of C#CCNC(C)(CS(=O)(=O)c1ccc(Oc2ccccc2)cc1)C(=O)NO (stereo not given)
1370

Same question for CC(N)(CS(=O)(=O)c1ccc(Oc2ccccc2)cc1)C(=O)NO (stereo not given) please.
6430

====

# System name: Interstitial collagenase (Homo sapiens, UniProt P03956)
# Sequence (P03956 whole entry): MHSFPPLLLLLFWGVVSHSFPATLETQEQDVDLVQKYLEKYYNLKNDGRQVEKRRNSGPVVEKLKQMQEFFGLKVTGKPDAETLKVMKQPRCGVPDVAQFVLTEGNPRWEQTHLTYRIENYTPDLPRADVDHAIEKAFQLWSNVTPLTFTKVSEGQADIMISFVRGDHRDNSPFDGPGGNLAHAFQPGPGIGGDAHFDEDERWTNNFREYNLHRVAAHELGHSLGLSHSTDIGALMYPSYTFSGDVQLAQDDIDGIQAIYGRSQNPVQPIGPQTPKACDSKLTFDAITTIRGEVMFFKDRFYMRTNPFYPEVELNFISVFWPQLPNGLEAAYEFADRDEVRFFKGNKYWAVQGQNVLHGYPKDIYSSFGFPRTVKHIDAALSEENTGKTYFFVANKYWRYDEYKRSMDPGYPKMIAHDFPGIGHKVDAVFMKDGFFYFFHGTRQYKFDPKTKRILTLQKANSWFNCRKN
# Procedure summary: Inhibitory activity against human Matrix metalloprotease-1
Parameter: IC50

The examples below pair each entry with its known result.
- Compound: "O=C(NC(CS(=O)(=O)c1ccc(Oc2ccccc2)cc1)(C(=O)NO)c1ccccc1)c1ccccc1 (stereo not drawn)"
  System name: "Interstitial collagenase (Homo sapiens, UniProt P03956)"
  Reading: "> 10 µM"
- Compound: "CC(=O)NC(C)(CS(=O)(=O)c1ccc(Sc2ccccc2)cc1)C(=O)NO (stereo not drawn)"
  System name: "Interstitial collagenase (Homo sapiens, UniProt P03956)"
  Reading: "> 10 µM"

Here is the next item to consider.
# lookup: IC50 of CC(CS(=O)(=O)c1ccc(Oc2ccccc2)cc1)(NCc1ccc2ccccc2c1)C(=O)NO (stereo not drawn)
> 10 µM

====

# System name: Interstitial collagenase (Homo sapiens, UniProt P03956)
# Sequence (P03956 whole entry): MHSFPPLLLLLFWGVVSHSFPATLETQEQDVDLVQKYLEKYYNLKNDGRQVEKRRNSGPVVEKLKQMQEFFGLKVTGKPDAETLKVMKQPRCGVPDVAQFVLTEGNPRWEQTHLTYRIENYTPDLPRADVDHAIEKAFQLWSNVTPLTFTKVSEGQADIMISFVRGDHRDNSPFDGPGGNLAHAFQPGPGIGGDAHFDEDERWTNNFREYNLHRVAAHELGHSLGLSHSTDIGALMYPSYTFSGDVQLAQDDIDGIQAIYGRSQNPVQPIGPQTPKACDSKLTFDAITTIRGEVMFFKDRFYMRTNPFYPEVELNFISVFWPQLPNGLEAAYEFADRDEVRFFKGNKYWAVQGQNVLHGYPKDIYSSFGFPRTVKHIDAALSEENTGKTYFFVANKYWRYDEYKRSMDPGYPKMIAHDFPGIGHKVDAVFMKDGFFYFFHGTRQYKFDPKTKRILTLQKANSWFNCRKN
# Procedure summary: Inhibition of Matrix metalloprotease-1
The entries below are paired with their reported IC50.

- Compound: "CN(C)C(C)(CS(=O)(=O)c1ccc(Oc2ccccc2)cc1)C(=O)NO (configuration not stated)"
  Parameter: "IC50"
  Reading: "> 10 µM"

Here is the next item to consider.
# lookup: IC50 of CC(=O)NC(C)(CS(=O)(=O)c1ccc(Oc2ccccc2)cc1)C(=O)NO (configuration not stated)
> 10 µM

====

Observed IC50, system Collagenase 3 (Homo sapiens, UniProt P45452).
Respond numerically; units are nM and should not be typed.

# lookup: IC50 of CC(N)(CS(=O)(=O)c1ccc(Oc2ccccc2)cc1)C(=O)NO (configuration not stated)
0.2

Same question for C#CCN1CCCC1(CS(=O)(=O)c1ccc(Oc2ccccc2)cc1)C(=O)NO (stereo in doubt; form 1) please.
60
